# Assayed System: T1, human IL-36R on cells (human, UniProt Q9HB29 20-575)
# T1 sequence (looked up): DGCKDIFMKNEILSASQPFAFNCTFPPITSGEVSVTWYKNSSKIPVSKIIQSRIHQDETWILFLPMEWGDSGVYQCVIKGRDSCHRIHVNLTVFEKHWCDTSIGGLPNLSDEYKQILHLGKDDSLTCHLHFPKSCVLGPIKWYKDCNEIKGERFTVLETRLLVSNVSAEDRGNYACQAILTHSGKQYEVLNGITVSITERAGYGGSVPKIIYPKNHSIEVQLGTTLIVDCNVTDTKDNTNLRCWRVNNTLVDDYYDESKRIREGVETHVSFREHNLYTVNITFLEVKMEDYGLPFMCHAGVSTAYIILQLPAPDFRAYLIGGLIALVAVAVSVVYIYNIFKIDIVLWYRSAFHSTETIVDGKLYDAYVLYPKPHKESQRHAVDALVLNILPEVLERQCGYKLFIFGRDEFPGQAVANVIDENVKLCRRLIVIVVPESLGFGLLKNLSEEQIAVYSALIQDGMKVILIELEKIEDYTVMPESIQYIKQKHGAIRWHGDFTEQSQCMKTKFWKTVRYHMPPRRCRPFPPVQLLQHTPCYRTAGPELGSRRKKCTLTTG
# Assay Protocol: cell-based or functional assay
What IC90, IL-6 release, NCI/ADR-RES cells, trun-IL-36g was measured for each of the following?

Please review the following examples before continuing.
antibody 81B4 (antibody, V domains shown, Mouse monoclonal from hybridoma; also called 81B4E11; Mouse 81B4) VH: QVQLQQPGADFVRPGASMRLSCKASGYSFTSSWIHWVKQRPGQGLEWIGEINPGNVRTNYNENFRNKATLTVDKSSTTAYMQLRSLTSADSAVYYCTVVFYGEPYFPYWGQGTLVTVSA VL: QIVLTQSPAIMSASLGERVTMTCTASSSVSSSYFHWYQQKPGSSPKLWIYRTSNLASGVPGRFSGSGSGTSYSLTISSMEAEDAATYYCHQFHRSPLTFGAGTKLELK | 0.2 nM
antibody 78C8 (antibody, V domains shown, Mouse monoclonal from hybridoma; also called 78C8D1; Mouse 78C8) VH: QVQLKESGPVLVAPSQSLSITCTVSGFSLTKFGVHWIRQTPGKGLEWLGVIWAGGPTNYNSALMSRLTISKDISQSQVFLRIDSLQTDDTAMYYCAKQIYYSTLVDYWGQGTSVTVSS VL: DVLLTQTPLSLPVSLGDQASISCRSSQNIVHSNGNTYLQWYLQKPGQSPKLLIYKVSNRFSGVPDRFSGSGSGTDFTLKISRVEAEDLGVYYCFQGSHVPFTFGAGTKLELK | 1.3 nM

Then this binder:
Lab note: antibody 81A1 (antibody, V domains shown, Mouse monoclonal from hybridoma; also called 81A1D1; Mouse 81A1) VH: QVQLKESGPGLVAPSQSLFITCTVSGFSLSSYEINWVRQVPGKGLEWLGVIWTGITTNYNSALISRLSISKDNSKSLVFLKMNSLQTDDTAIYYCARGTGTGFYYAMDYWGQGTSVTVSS VL: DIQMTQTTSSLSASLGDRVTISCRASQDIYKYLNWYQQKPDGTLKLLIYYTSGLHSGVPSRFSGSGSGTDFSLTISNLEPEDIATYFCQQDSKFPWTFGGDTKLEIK gave IC90, IL-6 release, NCI/ADR-RES cells, trun-IL-36g of 0.8 nM
